Hey, just so you know, these numbers are from the supplement of paper PMC11780869.

- Test system: Bacillus subtilis
- PROTOCOL: cleaved RNA product abundance (RNA/gDNA barcode ratio) relative to median wild-type variant (ratio to wild type); higher = more accumulation of the downstream cleavage product
- ASSAY_SETUP: experiment (reporter, strain, medium): exp 4a: truncated aprE reporter, strain BJT201 with 2% xylose (RNase J1 expressed); cleavage site: cggR-gapA (positions -7 to +36 mutated)
Label Fulfilled for high-side cleaved RNA product abundance (at or above 0.5) and Not fulfilled for low-side cleaved RNA product abundance (below it).

{"columns": ["RECORD_SEQUENCE", "ANSWER_LABEL"],
 "data": [
  ["ACAGACGAAGGAGCCGCAAAAAAGTTATTAAGGGATGCATAATCCCTCAATATAAATATCTCTCACTTATTTAAA", "Fulfilled"],
  ["ACAGACGAAGGAGCCGCAAAGAAGTTATTAAGGGATGAATAAGCCCTCAATATAAATATCTCTCACTTATTTAAA", "Fulfilled"],
  ["ACAGACGAAGGAGCCGCAAAGAAGTTATGAACGGATGAATAATCCCTCAATATAAATATCTCTCACTTATTTAAA", "Not fulfilled"],
  ["ACAGACGAAGGAGCCGCAACGAAGTTATAAAGGGATGAATAATCCCTCAATATAAATATCTCTCACTTATTTAAA", "Fulfilled"],
  ["ACAGACGAAGGAGCCGCAAAGAAGTTATTAAGGGATAAATAATCCCTCAATATAAATAGCTCTCACTTATTTAAA", "Fulfilled"],
  ["ACAGACGAAGGAGCCGCAAAGAAGTTATTAAGGGATGAATAATCCCTCTATGTAAATATCTCTCACTTATTTAAA", "Not fulfilled"],
  ["ACAGACGAAGGAGCCGCAAAAAAGTTATTAAGGGATGAATAATCCCTCTATATAAATATCTCTCACTTATTTAAA", "Fulfilled"],
  ["ACAGACGAAGGAGCCGCAAAGAAGTTATTAAAGGATGAATAATCCCTAAATATAAATATCTCTCACTTATTTAAA", "Not fulfilled"],
  ["ACAGACGAAGGAGCCGCAAAGAAGTTATTAAGGGATGAATAATCCTTCAATATAAATTTCTCTCACTTATTTAAA", "Not fulfilled"]
]}

====

- Test system: Bacillus subtilis
- PROTOCOL: cleaved RNA product abundance (RNA/gDNA barcode ratio) relative to median wild-type variant (ratio to wild type); higher = more accumulation of the downstream cleavage product
- ASSAY_SETUP: experiment (reporter, strain, medium): exp 4a: truncated aprE reporter, strain BJT201 with 2% xylose (RNase J1 expressed); cleavage site: cggR-gapA (positions -7 to +36 mutated)
cleaved RNA product abundance values, listed per item

{"columns": ["RECORD_SEQUENCE", "cleaved RNA product abundance"],
 "data": [
  ["ACAGACGAAGGAGCCGCAACGAAGTTATTAAGGGATGAATAATCCCTCAATGTAAATATCTCTCACTTATTTAAA", 0.11],
  ["ACAGACGAAGGAGCCGCAAAGAAGTTATTAAGTGTTGAATAATCCCTTAATATAAATATCTCTCACTTATTTAAA", 0.146],
  ["ACAGACGAAGGAGCCGCAAAGAAGTTATTAAGGGATGATTAATCCCTCAATATAAATATCTCTCACTTATTTAAA", 0.844],
  ["ACAGACGAAGGAGCCGCAAAGAAGTTATTAAGGGATGCATAATCACTCAATATAAATATCTCTCACTTATTTAAA", 0.109],
  ["ACAGACGAAGGAGCCGCAAAGAAGTTAATAAGGAATGAATAATCCCTCAATATAAATATCTCTCACTTATTTAAA", 0.165],
  ["ACAGACGAAGGAGCCGCAAAGAAGTTATTACGGGATGAATAATACCTCAATATAAATATCTCTCACTTATTTAAA", 0.112]
]}
